These measurements were taken from ChEMBL document CHEMBL1128617.

Below: a set of entries, each annotated with reported IC100.
- Test system: Artemia
- MEASUREMENT DESCRIPTION: In vitro antiparasitic activity in brine shrimp assay
- Format: functional

- COMPOUND: "CCC(C)[C@H]1O[C@]2(C=C[C@@H]1C)C[C@@H]1C[C@@H](C/C=C(\\C)[C@@H](O[C@H]3C[C@H](OC)[C@@H](O[C@H]4C[C@@H](OC)[C@@H](NC(C)=O)[C@H](C)O4)[C@H](C)O3)[C@@H](C)/C=C/C=C3\\CO[C@@H]4[C@H](O)C(C)=C[C@@H](C(=O)O1)[C@]34O)O2 (stereo partly drawn)"
  IC100: "430 ng/mL"
- COMPOUND: "CCC(C)[C@H]1O[C@]2(C=C[C@@H]1C)C[C@@H]1C[C@@H](C/C=C(\\C)[C@@H](O[C@H]3C[C@H](OC)[C@@H](O[C@H]4C[C@H](OC)[C@H](/N=C/N(C)C)[C@H](C)O4)[C@H](C)O3)[C@@H](C)/C=C/C=C3\\CO[C@@H]4[C@H](O)C(C)=C[C@@H](C(=O)O1)[C@]34O)O2 (stereo partly drawn)"
  IC100: "870 ng/mL"
- COMPOUND: "CCC(C)[C@H]1O[C@]2(C=C[C@@H]1C)C[C@@H]1C[C@@H](C/C=C(\\C)[C@@H](O[C@H]3C[C@H](OC)[C@@H](O[C@H]4C[C@H](OC)[C@H](NCCO)[C@H](C)O4)[C@H](C)O3)[C@@H](C)/C=C/C=C3\\CO[C@@H]4[C@H](O)C(C)=C[C@@H](C(=O)O1)[C@]34O)O2 (stereo partly drawn)"
  IC100: "3470 ng/mL"

* * *

Below: a set of entries, each annotated with reported IC100.
- System: Artemia
- MEASUREMENT DESCRIPTION: In vitro antiparasitic activity in brine shrimp assay
- Assay type: functional

- COMPOUND: "CCC(C)[C@H]1O[C@]2(C=C[C@@H]1C)C[C@@H]1C[C@@H](C/C=C(\\C)[C@@H](O[C@H]3C[C@H](OC)[C@@H](O[C@H]4C[C@H](OC)[C@@H](O)[C@H](C)O4)[C@H](C)O3)[C@@H](C)/C=C/C=C3\\CO[C@@H]4[C@H](O)C(C)=C[C@@H](C(=O)O1)[C@]34O)O2 (stereo partly specified)"
  IC100: "296 ng/mL"
- COMPOUND: "CCC(C)[C@H]1O[C@]2(CC(O)[C@@H]1C)C[C@@H]1C[C@@H](C/C=C(\\C)[C@@H](O[C@H]3C[C@H](OC)[C@@H](O[C@H]4C[C@H](OC)[C@H](NC(C)=O)[C@H](C)O4)[C@H](C)O3)[C@@H](C)/C=C/C=C3\\CO[C@@H]4[C@H](O)C(C)=C[C@@H](C(=O)O1)[C@]34O)O2 (stereo partly specified)"
  IC100: "870 ng/mL"
- COMPOUND: "CCC(C)[C@H]1O[C@]2(C=C[C@@H]1C)C[C@@H]1C[C@@H](C/C=C(\\C)[C@@H](O[C@H]3C[C@H](OC)[C@@H](O[C@H]4C[C@H](OC)[C@H](NC(=O)C(C)(C)C)[C@H](C)O4)[C@H](C)O3)[C@@H](C)/C=C/C=C3\\CO[C@@H]4[C@H](O)C(C)=C[C@@H](C(=O)O1)[C@]34O)O2 (stereo partly specified)"
  IC100: "1730 ng/mL"
- COMPOUND: "CCC(C)[C@H]1O[C@]2(CC[C@@H]1C)C[C@@H]1C[C@@H](C/C=C(\\C)[C@@H](O[C@H]3C[C@H](OC)[C@@H](O[C@H]4C[C@H](OC)[C@H](NC(C)=O)[C@H](C)O4)[C@H](C)O3)[C@@H](C)/C=C/C=C3\\CO[C@@H]4[C@H](O)C(C)=C[C@@H](C(=O)O1)[C@]34O)O2 (stereo partly specified)"
  IC100: "650 ng/mL"
- COMPOUND: "CCC(C)[C@H]1O[C@]2(C=C[C@@H]1C)C[C@@H]1C[C@@H](C/C=C(\\C)[C@@H](O[C@H]3C[C@H](OC)[C@@H](O[C@H]4C[C@H](OC)[C@H](NC(=O)c5ccccc5)[C@H](C)O4)[C@H](C)O3)[C@@H](C)/C=C/C=C3\\CO[C@@H]4[C@H](O)C(C)=C[C@@H](C(=O)O1)[C@]34O)O2 (stereo partly specified)"
  IC100: "28000 ng/mL"
- COMPOUND: "CCC(C)[C@H]1O[C@]2(C=C[C@@H]1C)C[C@@H]1C[C@@H](C/C=C(\\C)[C@@H](O[C@H]3C[C@H](OC)[C@@H](O[C@H]4C[C@H](OC)[C@H](NC(=O)C(F)(F)F)[C@H](C)O4)[C@H](C)O3)[C@@H](C)/C=C/C=C3\\CO[C@@H]4[C@H](O)C(C)=C[C@@H](C(=O)O1)[C@]34O)O2 (stereo partly specified)"
  IC100: "27800 ng/mL"

* * *

Below: a set of entries, each annotated with reported IC100.
- System: Artemia
- MEASUREMENT DESCRIPTION: In vitro antiparasitic activity in brine shrimp assay
- Type: functional
READOUT LABEL: IC100 (ng/mL)

- COMPOUND: "CCC(C)[C@H]1O[C@]2(C=C[C@@H]1C)C[C@@H]1C[C@@H](C/C=C(\\C)[C@@H](O[C@H]3C[C@H](OC)[C@@H](O[C@H]4C[C@H](OC)[C@H](NN(C)C)[C@H](C)O4)[C@H](C)O3)[C@@H](C)/C=C/C=C3\\CO[C@@H]4[C@H](O)C(C)=C[C@@H](C(=O)O1)[C@]34O)O2 (stereo partly specified)"
  READOUT LABEL: "IC100"
  EXPERIMENTAL RESULT: 430
- COMPOUND: "CCC(C)[C@H]1O[C@]2(C=C[C@@H]1C)C[C@@H]1C[C@@H](C/C=C(\\C)[C@@H](O[C@H]3C[C@H](OC)[C@@H](O[C@H]4C[C@H](OC)[C@H](NC)[C@H](C)O4)[C@H](C)O3)[C@@H](C)/C=C/C=C3\\CO[C@@H]4[C@H](O)C(C)=C[C@@H](C(=O)O1)[C@]34O)O2 (stereo partly specified)"
  READOUT LABEL: "IC100"
  EXPERIMENTAL RESULT: 1730
- COMPOUND: "CCC(C)[C@H]1O[C@]2(C=C[C@@H]1C)C[C@@H]1C[C@@H](C/C=C(\\C)[C@@H](O[C@H]3C[C@H](OC)[C@@H](O[C@H]4C[C@H](OC)[C@H](NC=O)[C@H](C)O4)[C@H](C)O3)[C@@H](C)/C=C/C=C3\\CO[C@@H]4[C@H](O)C(C)=C[C@@H](C(=O)O1)[C@]34O)O2 (stereo partly specified)"
  READOUT LABEL: "IC100"
  EXPERIMENTAL RESULT: 380
- COMPOUND: "CCC(C)[C@H]1O[C@]2(C=C[C@@H]1C)C[C@@H]1C[C@@H](C/C=C(\\C)[C@@H](O[C@H]3C[C@H](OC)[C@@H](O[C@H]4C[C@H](OC)[C@H](NC(=O)OC)[C@H](C)O4)[C@H](C)O3)[C@@H](C)/C=C/C=C3\\CO[C@@H]4[C@H](O)C(C)=C[C@@H](C(=O)O1)[C@]34O)O2 (stereo partly specified)"
  READOUT LABEL: "IC100"
  EXPERIMENTAL RESULT: 430
- COMPOUND: "CCC(C)[C@H]1O[C@]2(C=C[C@@H]1C)C[C@@H]1C[C@@H](C/C=C(\\C)[C@@H](O[C@H]3C[C@H](OC)[C@@H](O[C@H]4C[C@H](OC)[C@H](NC(C)=O)[C@H](C)O4)[C@H](C)O3)[C@@H](C)/C=C/C=C3\\CO[C@@H]4[C@H](O)C(C)=C[C@@H](C(=O)O1)[C@]34O)O2 (stereo partly specified)"
  READOUT LABEL: "IC100"
  EXPERIMENTAL RESULT: 540
- COMPOUND: "CCC(C)[C@H]1O[C@]2(C=C[C@@H]1C)C[C@@H]1C[C@@H](C/C=C(\\C)[C@@H](O[C@H]3C[C@H](OC)[C@@H](O[C@H]4C[C@H](OC)[C@H](NC(C)C)[C@H](C)O4)[C@H](C)O3)[C@@H](C)/C=C/C=C3\\CO[C@@H]4[C@H](O)C(C)=C[C@@H](C(=O)O1)[C@]34O)O2 (stereo partly specified)"
  READOUT LABEL: "IC100"
  EXPERIMENTAL RESULT: 1730

* * *

- Tested on: Artemia
- MEASUREMENT DESCRIPTION: In vitro antiparasitic activity in brine shrimp assay
- Assay type: functional

- COMPOUND: "CCC(C)[C@H]1O[C@]2(C=C[C@@H]1C)C[C@@H]1C[C@@H](C/C=C(\\C)[C@@H](O[C@H]3C[C@H](OC)[C@@H](O[C@H]4C[C@H](OC)/C(=N\\NC(N)=O)[C@H](C)O4)[C@H](C)O3)[C@@H](C)/C=C/C=C3\\CO[C@@H]4[C@H](O)C(C)=C[C@@H](C(=O)O1)[C@]34O)O2 (stereo partly drawn)"
  IC100 (ng/mL): 650
- COMPOUND: "CCC(=O)N[C@@H]1[C@H](C)O[C@@H](O[C@H]2[C@H](C)O[C@@H](O[C@@H]3/C(C)=C/C[C@@H]4C[C@@H](C[C@]5(C=C[C@H](C)[C@@H](C(C)CC)O5)O4)OC(=O)[C@@H]4C=C(C)[C@@H](O)[C@H]5OC/C(=C\\C=C\\[C@@H]3C)[C@]54O)C[C@@H]2OC)C[C@@H]1OC (stereo partly drawn)"
  IC100 (ng/mL): 430
- COMPOUND: "CCC(C)[C@H]1O[C@]2(C=C[C@@H]1C)C[C@@H]1C[C@@H](C/C=C(\\C)[C@@H](O[C@H]3C[C@H](OC)[C@@H](O[C@H]4C[C@H](OC)[C@H](N)[C@H](C)O4)[C@H](C)O3)[C@@H](C)/C=C/C=C3\\CO[C@@H]4[C@H](O)C(C)=C[C@@H](C(=O)O1)[C@]34O)O2 (stereo partly drawn)"
  IC100 (ng/mL): 1730
